Experiment: Pharmacokinetics of 361 in C57BL/6 mice
Format: in vivo
Settings: male, C57BL/6, mouse, plasma, ip, 50 mg/kg

smiles input	units label	half-life
Cn1nc(C(F)(F)F)cc1-c1ccc(OCc2ccc(Cl)cc2)c(-c2cc(C(F)(F)F)cc(C(F)(F)F)c2)c1O	h	44

* * *

Assay: Pharmacokinetics of 361 in C57BL/6 mice
Format: in vivo
Conditions: male, C57BL/6, mouse, plasma, po, 50 mg/kg

compound	half-life, h
Cn1nc(C(F)(F)F)cc1-c1ccc(OCc2ccc(Cl)cc2)c(-c2cc(C(F)(F)F)cc(C(F)(F)F)c2)c1O [Compound 361]	20
